Source of measurements: patent US11655235B2

TESTED_ON: DPP4 (Homo sapiens, UniProt P27487)
Sequence (P27487 whole entry): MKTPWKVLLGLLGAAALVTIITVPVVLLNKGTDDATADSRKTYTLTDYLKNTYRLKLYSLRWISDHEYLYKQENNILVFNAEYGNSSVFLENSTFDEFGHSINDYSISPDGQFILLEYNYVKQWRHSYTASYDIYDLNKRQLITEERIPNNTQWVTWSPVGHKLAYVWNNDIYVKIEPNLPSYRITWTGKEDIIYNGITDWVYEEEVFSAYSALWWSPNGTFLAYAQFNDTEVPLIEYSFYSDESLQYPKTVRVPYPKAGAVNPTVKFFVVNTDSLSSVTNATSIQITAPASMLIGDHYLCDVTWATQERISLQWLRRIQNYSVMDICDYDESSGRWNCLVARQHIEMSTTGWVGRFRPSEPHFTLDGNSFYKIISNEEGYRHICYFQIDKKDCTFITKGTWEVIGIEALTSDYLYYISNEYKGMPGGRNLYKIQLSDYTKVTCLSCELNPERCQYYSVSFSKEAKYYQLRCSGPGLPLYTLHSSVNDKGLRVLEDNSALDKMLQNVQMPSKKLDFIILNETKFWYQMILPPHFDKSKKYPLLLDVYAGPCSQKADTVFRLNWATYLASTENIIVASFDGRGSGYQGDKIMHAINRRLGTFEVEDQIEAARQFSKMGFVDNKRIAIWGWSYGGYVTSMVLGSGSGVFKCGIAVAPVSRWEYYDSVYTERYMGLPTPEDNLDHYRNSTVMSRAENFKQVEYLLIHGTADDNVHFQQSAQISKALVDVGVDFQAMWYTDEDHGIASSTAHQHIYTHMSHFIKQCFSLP
ASSAY_INFO: DPP4 inhibition, fluorogenic substrate H-Gly-Pro-AMC
Assay type: biochemical
Set-up: purchased R&D Systems
ASSAY_SETUP: recombinant human DPP4
pIC50: −log10 of the molar value.
MEASUREMENT_TYPE: pIC50

Examples with their reported pIC50 follow.
> print(dat)
                                   compound  assay.value
1  CCN(c1ccc2ncccc2c1)C1CCN(CC(=O)N2CCC[C@H]2C#N)CC1 [Example 303]       ≤ 4.00
2  N#C[C@@H]1CCCN1C(=O)CN1CC[C@H](Nc2cc(F)cc3ncccc23)C1 [Example 236]       < 5.00
3  N#C[C@@H]1CCCN1C(=O)CN1CC[C@H](Nc2cc(C(F)(F)F)cc3ncccc23)C1 [Example 238]       < 5.00

In one line, give reported pIC50 of the entry CN(c1cnc2ccccc2c1)C1CCN(CC(=O)N2C[C@@H](F)C[C@H]2C#N)CC1 [Example 316] . < 5.00

----------
Listed below: pIC50 values for each entry.
TESTED_ON: DPP4 (Homo sapiens)
ASSAY_INFO: DPP4 inhibition, fluorogenic substrate H-Gly-Pro-AMC
Format: biochemical
Parameters: purchased R&D Systems
ASSAY_SETUP: recombinant human DPP4
pIC50: −log10 of the molar value.

Tell me pIC50 of CN(c1ccc2ccncc2c1)C1CCN(CC(=O)N2C[C@@H](F)C[C@H]2C#N)CC1 when tested on DPP4 (Homo sapiens). < 5.00

----------
Consider the following molecules and their measured pIC50 readings.
TESTED_ON: Recombinant human FAP (Homo sapiens)
Construct: purchased R&D systems
Sequence (Q12884 whole entry): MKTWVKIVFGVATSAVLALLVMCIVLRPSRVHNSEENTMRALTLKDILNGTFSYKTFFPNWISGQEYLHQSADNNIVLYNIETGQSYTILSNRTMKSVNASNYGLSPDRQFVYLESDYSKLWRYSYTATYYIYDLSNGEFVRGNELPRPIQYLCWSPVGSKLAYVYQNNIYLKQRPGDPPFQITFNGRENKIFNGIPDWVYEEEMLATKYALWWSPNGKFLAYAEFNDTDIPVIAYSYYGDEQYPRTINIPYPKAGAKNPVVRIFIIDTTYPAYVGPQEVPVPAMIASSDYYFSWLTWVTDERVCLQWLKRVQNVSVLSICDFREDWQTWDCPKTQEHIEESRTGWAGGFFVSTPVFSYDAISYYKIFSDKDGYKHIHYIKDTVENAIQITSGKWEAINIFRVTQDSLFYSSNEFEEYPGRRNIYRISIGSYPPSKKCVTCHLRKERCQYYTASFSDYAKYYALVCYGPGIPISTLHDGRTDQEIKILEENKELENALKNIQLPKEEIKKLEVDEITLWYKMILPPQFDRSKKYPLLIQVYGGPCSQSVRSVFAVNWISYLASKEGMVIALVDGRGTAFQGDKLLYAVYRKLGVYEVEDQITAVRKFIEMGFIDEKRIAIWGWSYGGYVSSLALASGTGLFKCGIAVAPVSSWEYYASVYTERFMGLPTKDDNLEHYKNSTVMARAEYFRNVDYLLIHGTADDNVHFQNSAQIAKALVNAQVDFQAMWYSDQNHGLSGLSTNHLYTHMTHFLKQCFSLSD
ASSAY_INFO: FAP FRET assay, FGF21-sequence FRET peptide substrate
Type: biochemical
ASSAY_SETUP: FRET peptide with human FGF21 sequence, 6 μM, 37° C.
Lab note: report pIC50 as minus log10 of the concentration in molar units, number only.

# example entries with known answers
> print(dat)
                                   molecule  assay.value
1  N#C[C@@H]1C[C@H](F)CN1C(=O)CN1CC[C@@H](Nc2cc(F)c3ncccc3c2)C1 [Example 214]         8.42
2  COc1ccc2cc(N(C)C3CCN(CC(=O)N4C[C@@H](F)C[C@H]4C#N)CC3)cnc2c1 [Example 328]         8.22

Consider the record given below.
Give the reported value of pIC50 for this record: N#Cc1ccc(N[C@H]2CCN(CC(=O)N3CCC[C@H]3C#N)C2)c2cccnc12 [Example 247] 8.70

----------
TESTED_ON: DPP4 (Homo sapiens, UniProt P27487)
ASSAY_INFO: DPP4 inhibition, fluorogenic substrate H-Gly-Pro-AMC
Assay type: biochemical
Parameters: purchased R&D Systems
ASSAY_SETUP: recombinant human DPP4
Catalogue of log10 of IC50 values
Annotation: log10 of IC50, µM basis.

Reference set (3 entries):
> print(dat)
                                item.smiles                            tested.on  measurement.type  assay.value
1  COc1cc(N[C@@H]2CCN(CC(=O)N3CCC[C@H]3C#N)C2)c2cccnc2c1  DPP4 (Homo sapiens, UniProt P27487)     log10 of IC50         0.98
2  N#C[C@@H]1C[C@H](F)CN1C(=O)CN1CC[C@H](Nc2cc(F)cc3ncccc23)C1  DPP4 (Homo sapiens, UniProt P27487)     log10 of IC50         0.45
3  N#C[C@@H]1C[C@H](F)CN1C(=O)CN1CCC(Oc2ccc3ccncc3c2)CC1  DPP4 (Homo sapiens, UniProt P27487)     log10 of IC50         0.95

Report value: log10 of IC50, system: DPP4 (Homo sapiens, UniProt P27487), compound: CC(=O)Nc1ccc(N[C@H]2CCN(CC(=O)N3CCC[C@H]3C#N)C2)c2cccnc12 1.19

# assay system DPP4 (Homo sapiens, UniProt P27487): give log10 of IC50 of N#C[C@@H]1C[C@H](F)CN1C(=O)CN1CC[C@@H](Nc2cccc3ncc(F)cc23)C1 0.11

Give log10 of IC50 only, for CN(Cc1ccccc1)C(=O)c1ccc(N[C@H]2CCN(CC(=O)N3C[C@@H](F)C[C@H]3C#N)C2)c2cccnc12 , using DPP4 (Homo sapiens, UniProt P27487) data. 0.40

Look up and report log10 of IC50, with DPP4 (Homo sapiens, UniProt P27487) as system, for COc1ccc(N[C@H]2CCN(CC(=O)N3CCC[C@H]3C#N)C2)c2cccnc12 1.23

Answer briefly: log10 of IC50 recorded on DPP4 (Homo sapiens, UniProt P27487) for N#C[C@@H]1C[C@H](F)CN1C(=O)CN1CC[C@@H](Nc2ccnc3c(C(F)(F)F)cccc23)C1 0.58
